- System: oilseed rape (Brassica napus)
- experiment_notes: Test C preemergence, plant response rating
- Type: in vivo
- condition_info: Brassica napus, pre-emergence; Preemergence; 31 g ai/ha; scale 0 to 100
attribute_measured: plant injury at 31 g/ha (%)
Please reply with the bare figure in % and do not write the unit itself.

compound=O=C(OCCC(F)(F)F)c1c(Cl)cccc1Oc1ncc(Cl)cn1 assayed_system="oilseed rape (Brassica napus)" reading_unit=% obs_value=100
compound=O=C(OCCCC(F)(F)F)c1c(Br)cccc1Oc1ncc(Cl)cn1 assayed_system="oilseed rape (Brassica napus)" reading_unit=% obs_value=0
compound="CC(CC(F)(F)F)OC(=O)c1c(Br)cccc1Oc1ncc(Cl)cn1 (centres unmarked)" assayed_system="oilseed rape (Brassica napus)" reading_unit=% obs_value=50
compound=CCCOC(=O)c1c(Br)cccc1Oc1ncc(Cl)cn1 assayed_system="oilseed rape (Brassica napus)" reading_unit=% obs_value=50

# context switch: different compound, same plant injury at 31 g/ha
# plant injury at 31 g/ha (compound: O=C(OCCC(F)(F)F)c1c(Br)cccc1Oc1ncc(Cl)cn1 ) is 85
